procedure-summary: Cmax in Sprague-Dawley rat at 1.5 mg/kg, po measured upto 24 hrs by LC-MS/MS analysis
Format: ADME, organism-based
Parameters: time < 24 hrs, dose 1.5 mg/kg, route po
study-conditions: in vivo
parameter: Cmax (µg/mL)
Write down the numeric answer in µg/mL and omit the unit.

QUERY: Query: Cmax; subject: `COc1ccc(/C=C\c2cc(OC)c(OC)c(OC)c2)cc1NC(=O)CCC(=O)N[C@@H](CCCNC(=N)N)C(=O)O`
RESULT: 1.33

###

pIC50: −log10 of the molar value.
parameter: pIC50

QUERY: Form field - read-out: pIC50; system: Serine/threonine-protein kinase B-raf (Homo sapiens); submitted item: `COc1ccc(/C=C\c2cc(OC)c(OC)c(OC)c2)cc1NC(=O)CCC(=O)N[C@@H](CCCNC(=N)N)C(=O)O`
Sequence (P15056 whole entry): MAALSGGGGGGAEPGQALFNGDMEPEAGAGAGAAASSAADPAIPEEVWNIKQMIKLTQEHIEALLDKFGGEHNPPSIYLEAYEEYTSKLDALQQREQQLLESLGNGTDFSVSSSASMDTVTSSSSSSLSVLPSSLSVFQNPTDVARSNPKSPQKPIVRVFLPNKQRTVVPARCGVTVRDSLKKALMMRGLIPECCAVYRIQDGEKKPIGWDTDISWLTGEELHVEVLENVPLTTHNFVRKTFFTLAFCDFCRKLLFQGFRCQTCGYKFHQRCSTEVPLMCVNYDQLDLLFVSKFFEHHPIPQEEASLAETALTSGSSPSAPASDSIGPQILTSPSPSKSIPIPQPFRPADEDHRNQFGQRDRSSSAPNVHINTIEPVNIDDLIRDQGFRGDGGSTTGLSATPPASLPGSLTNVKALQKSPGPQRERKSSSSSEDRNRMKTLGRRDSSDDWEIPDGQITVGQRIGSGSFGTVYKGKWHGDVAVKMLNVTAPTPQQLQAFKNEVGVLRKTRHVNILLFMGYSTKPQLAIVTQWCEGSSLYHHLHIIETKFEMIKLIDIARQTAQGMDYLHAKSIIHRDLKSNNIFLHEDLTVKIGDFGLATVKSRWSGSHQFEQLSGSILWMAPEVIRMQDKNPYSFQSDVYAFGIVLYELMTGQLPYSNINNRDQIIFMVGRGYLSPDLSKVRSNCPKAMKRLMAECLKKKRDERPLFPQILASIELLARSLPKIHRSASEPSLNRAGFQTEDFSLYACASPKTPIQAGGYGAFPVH
RESULT: < 5.00

###

system: Mitogen-activated protein kinase 3 (Homo sapiens, UniProt P27361)
Sequence (P27361 whole entry): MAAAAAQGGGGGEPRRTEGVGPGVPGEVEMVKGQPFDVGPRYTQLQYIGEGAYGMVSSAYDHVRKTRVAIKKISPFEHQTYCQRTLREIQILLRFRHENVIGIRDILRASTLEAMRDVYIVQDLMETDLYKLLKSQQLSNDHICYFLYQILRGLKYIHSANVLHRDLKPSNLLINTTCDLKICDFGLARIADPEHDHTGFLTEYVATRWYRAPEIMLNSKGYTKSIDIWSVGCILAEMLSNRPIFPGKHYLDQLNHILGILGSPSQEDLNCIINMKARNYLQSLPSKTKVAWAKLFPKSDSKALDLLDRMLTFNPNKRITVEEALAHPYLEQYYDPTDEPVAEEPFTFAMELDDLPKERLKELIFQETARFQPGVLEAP
procedure-summary: Inhibition of ERK1 (unknown origin)
parameter: IC50

QUERY: Query: IC50; subject: `COc1ccc(/C=C\c2cc(OC)c(OC)c(OC)c2)cc1NC(=O)CCC(=O)N[C@@H](CCCNC(=N)N)C(=O)O`
RESULT: > 10 µM

###

system: Neuropilin-1 (Homo sapiens)
procedure-summary: Inhibition of [125I]-VEGF-A165 binding to NRP1 (unknown origin) transfected in HUVECs at 12 uM incubated for 2 hrs by plate reader analysis relative to control
Type: cell-based
study-conditions: HUVEC
parameter: inhibition

QUERY: Query: inhibition; subject: `N=C(N)NCCC[C@H](NC(=O)c1sccc1NS(=O)(=O)c1cccc2nsnc12)C(=O)O`
RESULT: 87%

QUERY: Query: inhibition; subject: `N=C(N)NCCC[C@H](NC(=O)c1ccccc1)C(=O)O`
RESULT: 79%

QUERY: Query: inhibition; subject: `COc1ccc(/C=C\c2cc(OC)c(OC)c(OC)c2)cc1NC(=O)CCC(=O)N[C@@H](CCCNC(=N)N)C(=O)O`
RESULT: 94%

QUERY: Query: inhibition; subject: N=C(N)NCC(C[C@H](NCc1ccccc1)C(=O)O)[N+](=O)[O-] (stereo partly specified)
RESULT: 60%

QUERY: Query: inhibition; subject: COc1cc(C(O)c2cc3c(cc2CO)OCO3)cc(OC)c1OC (stereo unspecified)
RESULT: 47%

QUERY: Query: inhibition; subject: `Cc1ccc(S(=O)(=O)N[C@@H](CCCNC(=N)N)C(=O)O)cc1`
RESULT: 82%

###

parameter: IC50

QUERY: Form field - read-out: IC50; system: Serine/threonine-protein kinase pim-1 (Homo sapiens); submitted item: `COc1ccc(/C=C\c2cc(OC)c(OC)c(OC)c2)cc1NC(=O)CCC(=O)N[C@@H](CCCNC(=N)N)C(=O)O`
Sequence (P11309 whole entry): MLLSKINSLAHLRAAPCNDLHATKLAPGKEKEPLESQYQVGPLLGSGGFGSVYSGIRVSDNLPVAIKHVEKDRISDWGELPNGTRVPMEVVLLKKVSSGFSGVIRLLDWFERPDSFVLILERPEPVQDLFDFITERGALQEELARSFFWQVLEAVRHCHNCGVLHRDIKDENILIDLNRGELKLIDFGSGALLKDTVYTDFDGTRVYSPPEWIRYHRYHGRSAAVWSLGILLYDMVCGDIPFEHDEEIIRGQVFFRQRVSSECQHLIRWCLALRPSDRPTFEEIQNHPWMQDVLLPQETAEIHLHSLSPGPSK
RESULT: > 10 µM

###

system: UniProt:P08631
Sequence (P08631 whole entry): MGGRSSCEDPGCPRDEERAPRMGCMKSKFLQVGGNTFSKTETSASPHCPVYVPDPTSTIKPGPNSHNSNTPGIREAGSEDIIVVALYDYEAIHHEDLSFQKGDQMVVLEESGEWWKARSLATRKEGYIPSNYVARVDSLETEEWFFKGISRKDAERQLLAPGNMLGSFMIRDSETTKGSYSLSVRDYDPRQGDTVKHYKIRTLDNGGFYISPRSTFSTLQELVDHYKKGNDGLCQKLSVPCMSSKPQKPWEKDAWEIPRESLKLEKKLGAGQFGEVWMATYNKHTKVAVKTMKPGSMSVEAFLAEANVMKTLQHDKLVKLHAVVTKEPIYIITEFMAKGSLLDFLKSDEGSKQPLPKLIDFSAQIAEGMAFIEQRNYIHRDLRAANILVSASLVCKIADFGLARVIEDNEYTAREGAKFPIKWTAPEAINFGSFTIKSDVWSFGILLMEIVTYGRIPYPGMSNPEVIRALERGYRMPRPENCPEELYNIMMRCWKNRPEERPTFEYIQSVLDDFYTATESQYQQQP
pIC50: −log10 of the molar value.
parameter: pIC50

QUERY: Query: pIC50; subject: `COc1ccc(/C=C\c2cc(OC)c(OC)c(OC)c2)cc1NC(=O)CCC(=O)N[C@@H](CCCNC(=N)N)C(=O)O`
RESULT: < 5.00

###

pIC50: −log10 of the molar value.
parameter: pIC50

QUERY: Form field - read-out: pIC50; system: Cyclin-dependent kinase 4 (Homo sapiens, UniProt P11802); submitted item: `COc1ccc(/C=C\c2cc(OC)c(OC)c(OC)c2)cc1NC(=O)CCC(=O)N[C@@H](CCCNC(=N)N)C(=O)O`
Sequence (P11802 whole entry): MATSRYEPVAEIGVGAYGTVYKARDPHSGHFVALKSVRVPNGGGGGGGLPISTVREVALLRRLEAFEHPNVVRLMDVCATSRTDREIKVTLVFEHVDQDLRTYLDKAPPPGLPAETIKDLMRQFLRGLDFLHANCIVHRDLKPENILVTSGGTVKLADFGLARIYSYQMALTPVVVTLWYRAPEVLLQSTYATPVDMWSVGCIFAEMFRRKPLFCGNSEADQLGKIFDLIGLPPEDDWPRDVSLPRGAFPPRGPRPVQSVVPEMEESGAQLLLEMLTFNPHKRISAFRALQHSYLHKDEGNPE
RESULT: < 5.00
